Assay: qHTS for Inhibitors of the Functional Ribonucleoprotein Complex (vRNP) of Lymphocytic Choriomeningitis Arenaviruses (LCMV): Viability assay - alamar blue signal for LCMV Primary Screen (AID 1347085); note: nearly all actives have a fitted effect of over 80% in size
Details: alamar blue viability counter-screen, LCMV vRNP screen cells; series mostly up to 57.5 µM
Records with an inconclusive call do not appear. The source made the active and inactive calls. Calls come from the whole dose curve; tested in HEK293 reporter line.
Classes to choose from: active, inactive

Request: Record request — test call for CCOC(=O)N1CCN([N+]([O-])=NOc2cc(ON=[N+]([O-])N3CCN(C(=O)OCC)CC3)c([N+](=O)[O-])cc2[N+](=O)[O-])CC1
Response: inactive

Request: Record request — test call for CCCCCCCCCCCCCCCCCCOS(=O)(=O)O
Response: inactive

Request: Record request — test call for CC1=C(C(=O)O)N2C(=O)C(NC(=O)CCCC(=O)O)C2SC1 (configuration not stated)
Response: inactive

Request: Record request — test call for Cc1cccc(C)c1OCC(N)C(C)C (configuration not stated)
Response: inactive

====

System: CP191
Test: qHTS profiling for inhibitors of Plasmodium falciparum proliferation (AID 504749); note: nearly all actives have a fitted effect of over 60% in size
Settings: P. falciparum in erythrocytes, SYBR Green DNA, 72 h; series mostly up to 28.7 µM
Records with an inconclusive call do not appear. Calls of active or inactive are those of the source. The call rests on the fitted dose curve; in most records, active means well fitted inhibition curve with a large enough effect; inconclusive means small, poorly fitted or top-dose-only effect; inactive means flat fitted curve, though single readings scatter.
Classes to choose from: true for active, false for inactive

Below, 4 compounds whose answers are already recorded.
Compound	Cat
CC(C)[C@@]1(NC(=O)[C@H]2CC3c4cccc5[nH]cc(c45)C[C@H]3N(C)C2)O[C@@]2(O)C3CCCN3C(=O)[C@@H](Cc3ccccc3)N2C1=O (stereo not given in full)	true
CO[C@H]1[C@@H](O)CC(OC2[C@@H](O)CC(OC3[C@@H](O)C[C@H](OC4CC[C@@]5(C)C(CCC6C5CC(O)[C@]5(C)[C@H](C7=CC(=O)OC7)CCC65O)C4)O[C@@H]3C)O[C@@H]2C)O[C@@H]1C (stereo not given in full)	false
CCN1C[C@]2(COC)[C@H](O)C[C@H](OC)[C@]34C1C([C@H](OC)[C@H]23)[C@]1(OC(C)=O)C2[C@@H](OC(=O)c3ccccc3)C(O)(C[C@H]24)[C@@H](OC)[C@@H]1O	false
CCCCCCCCCC[N+](C)(C)CCCCCCCCCC	true

Request: Record request — test call for CCN(CC)CCO[C@H]1CC[C@@]2(C)C(=CC[C@@H]3[C@H]2CC[C@]2(C)C(=O)CC[C@H]32)C1
Response: false

====

Assay: Primary qHTS for Vero E6 cytotoxicity: counterscreen for inhibitors of SARS-S pseudo-typed particle cell entry (AID 1479150)
Conditions: cell viability; at 57.1 µM (top of the series) unless noted; series mostly up to 57.1 µM
Results filed as inconclusive are left out. Calls of active or inactive are those of the source. Calls come from the whole dose curve.
Readout type: outcome

Illustrative cases are given below, each with its answer.
Compound	outcome
O=C(Nc1c(Cl)cncc1Cl)c1ccc(OC(F)F)c(OCC2CC2)c1	inactive
O=C(O)/C=C/c1ccccc1	inactive [at 114 µM]
CC(C(=O)O)c1ccc(-c2ccccc2)c(F)c1 (stereo not drawn)	inactive
C[N+](C)(C)CCO	inactive [at 114 µM]
Cc1ccccc1O	inactive
NC(=O)c1ncn([C@@H]2O[C@H](CO)[C@@H](O)[C@H]2O)n1	inactive

Your task in this section: give outcome for each listed record.
1. CCCCCCCCCC(=O)N[C@@H](Cc1c[nH]c2ccccc12)C(=O)N[C@H](CC(N)=O)C(=O)N[C@@H](CC(=O)O)C(=O)N[C@@H]1C(=O)NCC(=O)N[C@@H](CCCN)C(=O)N[C@@H](CC(=O)O)C(=O)N[C@H](C)C(=O)N[C@@H](CC(=O)O)C(=O)NCC(=O)N[C@H](CO)C(=O)N[C@@H]([C@@H](C)CC(=O)O)C(=O)N[C@@H](CC(=O)c2ccccc2N)C(=O)O[C@@H]1C
2. CCOc1nc2cccc(C(=O)OCc3oc(=O)oc3C)c2n1Cc1ccc(-c2ccccc2-c2noc(O)n2)cc1

Response:
1. inactive
2. inactive

====

Assay: qHTS for Inhibitors of the Functional Ribonucleoprotein Complex (vRNP) of Lymphocytic Choriomeningitis Arenaviruses (LCMV): Viability assay - alamar blue signal for LCMV Primary Screen (AID 1347085); note: nearly all actives have a fitted effect of over 80% in size; note: potency is the fitted concentration of half-maximal effect
Details: alamar blue viability counter-screen, LCMV vRNP screen cells; series mostly up to 57.5 µM
Records with an inconclusive call do not appear. Active and inactive are the calls of the source. Calls follow the shape of the full dose curve; tested in HEK293 reporter line.
Readout type: Potency

Compound	Potency
COc1cc(OC)c(C=CS(=O)(=O)Cc2ccc(OC)c(NCC(=O)O)c2)c(OC)c1	0.273 µM (active)
CC(=O)O[C@]1(C(C)=O)CC[C@H]2[C@@H]3C=C(Cl)C4=CC(=O)[C@@H]5C[C@H]5[C@]4(C)[C@@H]3CC[C@@]21C	24.3 µM (active)
CC(C)(O)C1OC2CCC3(C)C(O)(CCC4Cc5c([nH]c6ccccc56)C43C)C2=CC1=O (stereo not given)	inactive
COc1cc2c(c(OC)c1OC)-c1c(cc3c(c1OC)OCO3)C[C@H](C)[C@@](C)(O)C2	inactive

Your task in this section: give Potency for each listed record.
1. O=Cc1ccnc2ccccc12
2. Nc1[nH]nc2nnc(-c3c(-c4ccccc4)nn4ccccc34)cc12
3. Cn1cnc(-c2cc3nccc(Oc4ccc(NC(=S)NC(=O)Cc5ccccc5)cc4F)c3s2)c1
4. O=S(=O)(O)CCSSCCS(=O)(=O)O
5. CC(C)c1onc(-c2c(Cl)cccc2Cl)c1COc1ccc(C=Cc2cccc(C(=O)O)c2)c(Cl)c1

Response:
inactive
inactive
inactive
inactive
inactive

Request: Item CCc1cc2c(cc1N1CCC(N3CCOCC3)CC1)C(C)(C)c1[nH]c3cc(C#N)ccc3c1C2=O has what recorded Potency?
Response: inactive

====

Assay: qHTS for differential inhibitors of proliferation of Plasmodium falciparum line 7G8 (AID 1815);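 note: parasite growth measured after three days of incubation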; note: potency is the fitted concentration of half-maximal effect
Settings: Plasmodium falciparum 7G8 proliferation inhibition; series mostly up to 28.7 µM
Records with an inconclusive call do not appear. The source made the active and inactive calls. Calls come from the whole dose curve; as a rule, active = well fitted curve in the direction sought with a large enough effect; inconclusive = small, poorly fitted or top-dose-only effect, or another doubt; inactive = no such curve, though single readings can be large or run the other way.
Readout type: Potency

Illustrative cases are given below, each with its answer.
Molecule	Potency
CC(=O)[C@H]1CC[C@H]2[C@@H]3CCC4=CC(=O)CC[C@]4(C)[C@H]3CC[C@]12C	8.91 µM (active)
N[C@H](CCCCCP(=O)(O)O)C(=O)O	inactive
C[N+]1(C)CCc2cc3c(cc2C1C1OC(=O)c2c1ccc1c2OCO1)OCO3 (stereo not drawn)	inactive
OC1(c2ccc(Cl)cc2)CCN(Cc2c[nH]c3ccccc23)CC1	7.08 µM (active)
C=CCN1CCC2(C)c3cc(O)ccc3CC1C2C (stereo not drawn)	7.08 µM (active)
CN1[C@@H](CC(=O)c2ccccc2)CCC[C@H]1C[C@H](O)c1ccccc1	6.31 µM (active)
N#C/C(=C\c1ccc(O)c(O)c1)C(=O)NCCCNC(=O)/C(C#N)=C/c1ccc(O)c(O)c1	2.82 µM (active)
COC(=O)c1cc2c(cn1)[nH]c1ccccc12	11.2 µM (active)

Your task in this section: give Potency for each listed record.
1. CC(O)C(C)OC(=O)[C@@H]1C[C@@H]2c3cccc4c3c(cn4C(C)C)C[C@H]2N(C)C1 (stereo partly drawn)
2. CCCCCCCCCC[Si](C)(C)CCC(=O)NC(Cc1ccc(C)cc1)c1ccccc1 (stereo not drawn)
3. N#CC(C#N)=Cc1ccc([N+](=O)[O-])c(O)c1

Response:
11.2 µM (active)
3.55 µM (active)
inactive

Your task in this section: give Potency for each listed record.
1. COc1ccc2[nH]cc(CCN(C)C)c2c1
2. CN1CCc2cc(O)cc3c2C1Cc1ccc(O)c(O)c1-3 (stereo not drawn)

Response:
["inactive", "8.91 µM (active)"]

====

Assay: qHTS for differential inhibitors of proliferation of Plasmodium falciparum line W2 (AID 1883);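 note: parasites grown with compound for 72 h before lysis and staining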
Details: Plasmodium falciparum W2 proliferation inhibition; series mostly up to 28.7 µM
Inconclusive results are not listed. Active and inactive are the calls of the source. The call rests on the fitted dose curve; in most records, active means well fitted curve in the direction sought with a large enough effect; inconclusive means small, poorly fitted or top-dose-only effect, or another doubt; inactive means no such curve, though single readings can be large or run the other way.
Classes to choose from: t = active, f = inactive

Below, 6 compounds whose answers are already recorded.
Compound	Cat
COc1cc([C@@H]2c3cc4c(cc3[C@H](O)C3COC(=O)[C@@H]32)OCO4)cc(OC)c1OC (some centres not stated)	t
CN1[C@@H](CC(=O)c2ccccc2)CCC[C@H]1C[C@H](O)c1ccccc1	t
N#CC(C#N)=Cc1ccc([N+](=O)[O-])c(O)c1	f
OC1(c2ccc(Cl)cc2)CCN(Cc2c[nH]c3ccccc23)CC1	t
C=CCN1CCC2(C)c3cc(O)ccc3CC1C2C (configuration not stated)	t
COc1ccc(CCN)cc1O	f

Please turn your attention to the following entry.
Request: Record request — test call for COc1ccc(-n2nc(C(F)(F)F)cc2-c2ccc(Cl)cc2)cc1
Response: t

====

Experiment: Cell Viability - LYMP2-025 (AID 976);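 note: cells exposed to compound for 24 h at 37 °C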
Details: LYMP2-025 lymphoblastoid cell viability; series mostly up to 92.2 µM
Inconclusive results are not listed. Calls of active or inactive are those of the source. Calls follow the shape of the dose curve; as a rule, active = well fitted cell-killing curve with a large enough effect; inconclusive = small, poorly fitted or top-dose-only effect; inactive = flat fitted curve, though single readings scatter.

Smiles str	outcome
COC(=O)c1ccccc1C(=O)OC	inactive
CCOc1cc(C=O)ccc1O	inactive
Cc1ccccc1O	inactive

Each recorded value in this set is attributed to PubChem BioAssay (NCATS).
